B1: FICD^H363A (residues 104–445), dimeric, catalytically inactive [human] / AMPylated biotinylated-AviTag-haBiP^T229A-V461F (residues 27–635) [modified: AMP covalently attached to Thr518 (Thr518-AMP); biotin on the N-terminal Avi-tag; AMP … (parent complex)
chain 1: LEARAALNQALEMKRQGKREKAQKLFMHALKMDPDFVDALTEFGIFSEEDKDIIQADYLYTRALTISPYHEKALVNRDRTLPLVEEIDQRYFSIIDSKVKKVMSIPKGNSALRRVMEETYYHHIYHTVAIEGNTLTLSEIRHILETRYAVPGKSLEEQNEVIGMHAAMKYINTTLVSRIGSVTISDVLEIHRRVLGYVDPVEAGRFRTTQVLVGHHIPPHPQDVEKQMQEFVQWLNSEEAMNLHPVEFAALAHYKLVYIAPFIDGNGRTSRLLMNLILMQAGYPPITIRKEQRSDYYHVLEAANEGDVRPFIRFIAKCTETTLDTLLFATTEYSVALPEAQP
chain 2: not shown

variants of: B1; assay: BLI; 50 nM FICD analyte; immobilised BiP-AMP activated in 2 mM ATP; read at end of apo association (600 s); parent: 0.74; read off a plot
Provide the recorded response for the entries that follow.

Reference set, count: 3
variant description: chain 1 H28A
measurement type: response
observed value: ~0.66 nm

variant description: chain 1 E2R
measurement type: response
observed value: ~0.73 nm

variant description: chain 1 K21E
measurement type: response
observed value: ~0.43 nm

# ---- query variant ----
In: Please report the measured response for chain 1 K21E, chain 1 H28A
Out: ~0.03 nm
